assay: amyloid nucleation score (Sup35N fusion, yeast selection) (log enrichment); library NNK3; higher = more nucleation; inactive = no reads after selection;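 further: zero at mode of non-aggregating sequences after 7 days selection at 30°C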
propertyName: amyloid nucleation score

Would you please look over these solved cases?
MAHDEYWTGCVTGYKELEVM	inactive
SWSFMFSFSNSATNAACLPQ	0.327
AMKPMKNRSASLVGN	inactive
ACYFWFNINIEHAR	1.78
HLSFDIVV	inactive
YLICTRPILSLASLVS	inactive
YSFMKP	inactive
CSRLPVHRFIP	inactive

Please report amyloid nucleation score for every entry that follows.
1. PTLILWDFCCLVLVEAFYGC
2. FVISYELWAVSERNWSFEMR
3. CCGQIADSFLPKSSRGEVRN
4. YMYQLKYYASEMNWVYSYSI
5. RYRSGLDPFRCSYFNSPFYS
6. GMIASDVFAHFKSGQTMGVW
7. IIVMDCNGKLNGINHWVRVD

Response:
["inactive", "inactive", "inactive", "inactive", "inactive", "inactive", "inactive"]

Please report amyloid nucleation score for every entry that follows.
1. TFCFLQVN
2. FTSYRSEPTIYALLCLGLSL

Response:
["inactive", 2.08]

Origin of values: the supplement of paper PMC12042874
